Below is a list of entries, each paired with its recorded % I (1 μM) value.
Target: canine TRPM8 (Canis lupus familiaris)
Construct: expressed in transfected cells
Sequence (Q1A7N1 1-1104): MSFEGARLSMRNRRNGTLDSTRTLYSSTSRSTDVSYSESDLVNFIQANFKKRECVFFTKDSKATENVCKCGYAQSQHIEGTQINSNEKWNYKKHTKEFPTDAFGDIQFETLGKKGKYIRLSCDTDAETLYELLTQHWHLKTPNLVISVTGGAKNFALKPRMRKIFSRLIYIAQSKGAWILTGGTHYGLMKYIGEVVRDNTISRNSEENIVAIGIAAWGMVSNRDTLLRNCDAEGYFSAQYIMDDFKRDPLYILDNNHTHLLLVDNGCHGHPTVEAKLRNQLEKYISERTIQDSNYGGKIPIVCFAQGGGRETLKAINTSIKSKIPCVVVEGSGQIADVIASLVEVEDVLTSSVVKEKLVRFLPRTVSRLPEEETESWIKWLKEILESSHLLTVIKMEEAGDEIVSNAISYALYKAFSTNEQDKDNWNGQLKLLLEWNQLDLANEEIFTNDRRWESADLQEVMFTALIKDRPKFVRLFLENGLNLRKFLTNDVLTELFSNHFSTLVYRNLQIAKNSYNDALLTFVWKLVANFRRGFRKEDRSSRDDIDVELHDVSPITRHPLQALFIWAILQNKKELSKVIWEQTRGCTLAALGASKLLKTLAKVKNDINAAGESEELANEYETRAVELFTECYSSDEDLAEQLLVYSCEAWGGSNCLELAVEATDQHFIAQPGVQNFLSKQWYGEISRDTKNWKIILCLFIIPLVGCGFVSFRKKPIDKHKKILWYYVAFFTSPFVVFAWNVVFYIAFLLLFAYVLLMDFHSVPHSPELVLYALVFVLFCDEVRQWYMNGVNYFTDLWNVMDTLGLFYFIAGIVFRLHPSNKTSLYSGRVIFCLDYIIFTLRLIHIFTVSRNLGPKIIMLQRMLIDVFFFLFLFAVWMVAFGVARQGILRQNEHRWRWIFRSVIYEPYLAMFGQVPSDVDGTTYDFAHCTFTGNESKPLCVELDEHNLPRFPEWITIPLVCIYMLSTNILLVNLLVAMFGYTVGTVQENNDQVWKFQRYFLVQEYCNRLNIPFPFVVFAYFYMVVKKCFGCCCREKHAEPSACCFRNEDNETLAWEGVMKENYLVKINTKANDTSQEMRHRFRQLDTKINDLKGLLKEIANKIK
Assay: In vitro canine TRPM8 functional assay (Ca2+-sensitive dye, FLIPR/FDSS, icilin activation)
Assay type: cell-based
Settings: 1 μM compound; HEK293 cells expressing canine TRPM8, icilin activation
Hi! Could you send only the number? It should be in %, unit omitted.

Req: Provide one value: measured % I (1 μM) of CCOP(=O)(OCC)C(Cc1cc(C(F)(F)F)cc(C(F)(F)F)c1)c1cc2ccccc2s1 (stereo not shown) [Cpd 96]
Resp: 92

Req: Provide one value: measured % I (1 μM) of CCOP(=O)(OCC)C(Cc1cccc(OC(F)(F)F)c1)c1sc2ccccc2c1C (stereo not shown) [Cpd 57]
Resp: 100

Req: Provide one value: measured % I (1 μM) of CCOP(=O)(OCC)C(Cc1ccccc1-c1ccccc1)c1sc2ccccc2c1C (stereo not shown) [Cpd 115]
Resp: 69

Req: Provide one value: measured % I (1 μM) of CCOP(=O)(OCC)C(Cc1cccc(C(F)(F)F)c1F)c1sc2ccccc2c1C (stereo not shown) [Cpd 37]
Resp: 100

Req: Provide one value: measured % I (1 μM) of CCOP(=O)(OCC)C(Cc1ccccc1C(F)(F)F)c1sc2ccccc2c1C (stereo not shown) [Cpd 59]
Resp: 99

Req: Provide one value: measured % I (1 μM) of CCOP(=O)(OCC)C(Cc1cc(C(F)(F)F)cc(Cl)c1F)c1sc2ccccc2c1C (stereo not shown) [Cpd 73]
Resp: 100
